// reported inhibition at 1 ppm for each item listed
Tested on: pathogenic bacteria causing bacterial angular leaf spot in cucumbers
assay.method.text: In vitro bactericidal activity, bacterial angular leaf spot in cucumbers
Assay type: cell-based, pseudomonas
conditions.used: dosage 1 ppm, read-out: inhibitory rate

| molecule | inhibition at 1 ppm |
| --- | --- |
| CCOCCOC(=O)c1cn(C2CC2)c2cc(SCC)c(F)cc2c1=O [Compound 397] | ≥ 90% |
| O=C(OCCO)c1cn(C2CC2)c2cc(Cl)c(F)cc2c1=O [Compound 151] | ≥ 90% |
| COc1cc2c(cc1F)c(=O)c(C(=O)OCCO)cn2C1CC1 [Compound 264] | ≥ 90% |

Suppose we examine the molecule CCOc1cc2c(cc1F)c(=O)c(C(=O)OCCO)cn2C1CC1 [Compound 265] ; what inhibition at 1 ppm value has been reported?
≥ 90%

Report inhibition at 1 ppm for CCOCCOC(=O)c1cn(C2CC2)c2cc(OC)c(F)cc2c1=O [Compound 326] please.
≥ 90%

Please look up its inhibition at 1 ppm: COCCOC(=O)c1cn(C2CC2)c2cc(OC)ccc2c1=O [Compound 353]
≥ 80%

Any idea what inhibition at 1 ppm was measured for COCCCOC(=O)c1cn(C2CC2)c2cc(OC)c(F)cc2c1=O [Compound 323] ?
≥ 90%

Report inhibition at 1 ppm for CCOCCOC(=O)c1cn(C2CC2)c2cc(OCC(F)(F)F)c(F)cc2c1=O [Compound 335] please.
≥ 90%

Which inhibition at 1 ppm reading was recorded for the molecule CN(C)c1cc2c(cc1F)c(=O)c(C(=O)OCCO)cn2C1CC1 [Compound 413] ?
≥ 90%

Quick one: inhibition at 1 ppm for O=C(OCCCO)c1cn(C2CC2)c2cc(F)ccc2c1=O [Compound 207] ?
≥ 90%

What value of inhibition at 1 ppm has been recorded for this entry: CCOc1cc2c(cc1F)c(=O)c(C(=O)OCCCOC)cn2C1CC1 [Compound 315]
≥ 90%

What does the record list as inhibition at 1 ppm for CCOc1cc2c(cc1F)c(=O)c(C(=O)OCCOC1CCCC1)cn2C1CC1 [Compound 307] ?
≥ 90%

Can you look up the measured inhibition at 1 ppm of O=C(OCCCCO)c1cn(C2CC2)c2cc(Cl)c(F)cc2c1=O [Compound 177] for me?
≥ 90%

Given the molecule CCNc1cc2c(cc1F)c(=O)c(C(=O)OCCOC)cn2C1CC1 [Compound 408] , what is its reported inhibition at 1 ppm?
≥ 90%

Given the molecule CCOCOC(=O)c1cn(C2CC2)c2cc(OCC)c(F)cc2c1=O [Compound 312] , what is its reported inhibition at 1 ppm?
≥ 90%

# get_value(readout='inhibition at 1 ppm', item= O=C(OCCO)c1cn(C2CC2)c2ccc(Cl)cc2c1=O [Compound 44] )
≥ 80%

Fill in: inhibition at 1 ppm of O=C(OCCOC1CC1)c1cn(C2CC2)c2cc(Cl)c(F)cc2c1=O [Compound 160] is ___
≥ 80%

Data request, read-out inhibition at 1 ppm, for O=C(OCCO)c1cn(C2CC2)c2cc(OCC(F)(F)F)ccc2c1=O [Compound 360]
≥ 80%

Which inhibition at 1 ppm is listed for CCOCCOC(=O)c1cn(C2CC2)c2cc(Cl)c(F)cc2c1=O [Compound 153] ?
≥ 90%

Report inhibition at 1 ppm for O=C(OCCO)c1cn(C2CC2)c2cc(F)ccc2c1=O [Compound 194] please.
≥ 80%

Bench note: what inhibition at 1 ppm did CNc1cc2c(cc1F)c(=O)c(C(=O)OCCO)cn2C1CC1 [Compound 400] show?
≥ 90%

---

System: soft rot in Chinese cabbages
assay.method.text: whole plant or invertebrate
conditions.used: 48 h, read-out: efficacy against soft rot in Chinese cabbages
Listing of recorded pest or weed control at 5 ppm by entry.

Solved cases below.
| compound | pest or weed control at 5 ppm |
| --- | --- |
| CCOCCOC(=O)c1cn(C2CC2)c2cc(OC)c(F)cc2c1=O [Compound 326] | ≥ 90% |
| CCNc1cc2c(cc1F)c(=O)c(C(=O)OCCOC)cn2C1CC1 [Compound 408] | ≥ 90% |
| O=C(OCCCO)c1cn(C2CC2)c2cc(Cl)c(F)cc2c1=O [Compound 164] | ≥ 90% |

The record that follows has no pest or weed control at 5 ppm shown yet.
Could you tell me which pest or weed control at 5 ppm is on file for COCCOC(=O)c1cn(C2CC2)c2ccc(Cl)cc2c1=O [Compound 45] ?
≥ 80%

---

Tested on: pathogenic bacteria causing bacterial angular leaf spot in cucumbers
assay.method.text: In vitro bactericidal activity, bacterial angular leaf spot in cucumbers
Format: cell-based, pseudomonas
conditions.used: dosage 1 ppm, read-out: inhibitory rate
reported.property: inhibition at 1 ppm

| smiles.data | target.entity | inhibition at 1 ppm |
| --- | --- | --- |
| CCOc1ccc2c(=O)c(C(=O)OCCOC)cn(C3CC3)c2c1 | pathogenic bacteria causing bacterial angular leaf spot in cucumbers | ≥ 90% |
| COCOC(=O)c1cn(C2CC2)c2ccc(F)cc2c1=O | pathogenic bacteria causing bacterial angular leaf spot in cucumbers | ≥ 80% |

Please look at the following molecule next.
Recorded inhibition at 1 ppm for O=C(OCCCO)c1cn(C2CC2)c2ccc(F)cc2c1=O with pathogenic bacteria causing bacterial angular leaf spot in cucumbers, please?
≥ 80%

---

Test system: pathogenic bacteria causing bacterial angular leaf spot in cucumbers
assay.method.text: In vitro bactericidal activity, bacterial angular leaf spot in cucumbers
Format: cell-based, pseudomonas
conditions.used: dosage 1 ppm, read-out: inhibitory rate
reported.property: inhibition at 1 ppm

| smiles.data | inhibition at 1 ppm |
| --- | --- |
| COCCOC(=O)c1cn(C2CC2)c2cc(N3CCCCC3)c(F)cc2c1=O | ≥ 90% |
| COCCOC(=O)c1cn(C2CC2)c2ccc(F)cc2c1=O | ≥ 90% |

# context switch: different molecule, same inhibition at 1 ppm
So what's the measured inhibition at 1 ppm for this one? CCOCOC(=O)c1cn(C2CC2)c2cc(Cl)c(F)cc2c1=O
≥ 80%

All values here come from patent US20250313533A1.
